# TESTED SYSTEM: human ether-à-go-go-related gene (hERG) potassium channel (human);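 note: peak tail current of the secondary pulse compared with the same well before compound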
# Sequence (Q12809 whole entry, looked up): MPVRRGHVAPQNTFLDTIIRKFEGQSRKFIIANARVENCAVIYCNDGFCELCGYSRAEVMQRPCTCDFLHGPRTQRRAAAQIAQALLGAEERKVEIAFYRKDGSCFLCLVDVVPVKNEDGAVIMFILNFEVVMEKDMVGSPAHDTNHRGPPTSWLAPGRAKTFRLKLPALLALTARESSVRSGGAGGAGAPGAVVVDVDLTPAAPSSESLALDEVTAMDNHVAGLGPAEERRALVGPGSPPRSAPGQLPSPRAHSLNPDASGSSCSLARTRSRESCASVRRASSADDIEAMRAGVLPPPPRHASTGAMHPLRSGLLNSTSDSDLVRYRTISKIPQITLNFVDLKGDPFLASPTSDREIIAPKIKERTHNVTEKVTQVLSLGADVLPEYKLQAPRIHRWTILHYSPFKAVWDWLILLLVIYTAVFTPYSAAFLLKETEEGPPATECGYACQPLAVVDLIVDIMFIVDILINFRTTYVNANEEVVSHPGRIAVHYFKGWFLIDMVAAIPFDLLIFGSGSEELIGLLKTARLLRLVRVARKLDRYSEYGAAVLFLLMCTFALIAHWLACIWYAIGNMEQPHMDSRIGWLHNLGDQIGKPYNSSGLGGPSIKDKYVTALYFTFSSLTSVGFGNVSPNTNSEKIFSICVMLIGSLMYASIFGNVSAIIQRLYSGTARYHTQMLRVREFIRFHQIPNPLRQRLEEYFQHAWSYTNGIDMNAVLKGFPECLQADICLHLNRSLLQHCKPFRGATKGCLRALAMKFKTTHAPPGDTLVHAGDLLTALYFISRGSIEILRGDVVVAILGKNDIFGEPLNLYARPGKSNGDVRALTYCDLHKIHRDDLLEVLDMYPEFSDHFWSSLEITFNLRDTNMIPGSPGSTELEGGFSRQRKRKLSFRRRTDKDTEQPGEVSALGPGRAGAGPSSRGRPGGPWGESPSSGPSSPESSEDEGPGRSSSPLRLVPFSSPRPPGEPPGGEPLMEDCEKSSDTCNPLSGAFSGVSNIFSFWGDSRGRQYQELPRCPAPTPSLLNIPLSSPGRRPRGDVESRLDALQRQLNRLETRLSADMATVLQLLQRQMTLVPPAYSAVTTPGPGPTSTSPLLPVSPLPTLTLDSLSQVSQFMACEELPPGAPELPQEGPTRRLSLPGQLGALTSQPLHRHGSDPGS
# ASSAY NAME: primary screen, population patch clamp on CHO cells stably expressing hERG; higher = less effect of the substance
In all, about 310,000 compounds went through this assay and about 14,000 (4.5%) showed an effect of 50% or more. The effect is printed as a negative number. Only a selection was taken, and strong results are over-represented in it overall.
MEASURED PARAMETER: hERG current change (%, negative = inhibition) at 10uM (%)
Reply numerically in %, unit not repeated.

Suppose we examine the compound COC(=O)C1=C(C)N=C2SCCC(=O)N2C1c1cccs1 (centres unmarked) ; what hERG current change (%, negative = inhibition) at 10uM value has been reported? 10.4

What does the record list as hERG current change (%, negative = inhibition) at 10uM for Cc1ccc(NC(=O)CSc2nnc(-c3ccoc3C)n2CCCN(C)C)cc1Cl ? -69.3

What value of measured hERG current change (%, negative = inhibition) at 10uM is listed for COC(=O)CSc1nnc(CNS(=O)(=O)c2ccc(C)cc2)n1C ? 1.97

Fill in: hERG current change (%, negative = inhibition) at 10uM of CCOC(=O)c1cccc(NC(=O)CSc2nnc(-c3ccoc3C)n2CCOC)c1 is ___ -19.7

From here, focus on the item given below.
Param item = Cc1ccc(-c2nc(N3CCN(C)CC3)c3ccccc3n2)cc1.Cl ; retrieve measured hERG current change (%, negative = inhibition) at 10uM. -59.9
